Origin of measurements: patent US11484543B2

Target: KCNJ5^G151R (Homo sapiens, UniProt P48544, G151R)
Sequence (P48544 whole entry G151R): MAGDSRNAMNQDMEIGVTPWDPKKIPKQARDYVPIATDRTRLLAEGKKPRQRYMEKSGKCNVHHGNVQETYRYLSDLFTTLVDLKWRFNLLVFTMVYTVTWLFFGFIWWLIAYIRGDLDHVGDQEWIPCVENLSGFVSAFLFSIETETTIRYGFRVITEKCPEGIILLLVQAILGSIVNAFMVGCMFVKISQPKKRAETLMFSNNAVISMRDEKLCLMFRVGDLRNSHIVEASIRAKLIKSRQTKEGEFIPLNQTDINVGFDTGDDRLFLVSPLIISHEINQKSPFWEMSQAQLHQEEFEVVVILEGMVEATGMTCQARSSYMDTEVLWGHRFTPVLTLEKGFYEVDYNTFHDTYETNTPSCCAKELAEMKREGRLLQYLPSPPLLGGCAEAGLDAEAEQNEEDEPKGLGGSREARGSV
Experiment: cell-based
Settings: 10-point dilution 20 to 0.0391 μM, N=3, four-parameter fit
Experimental: WT or mutant human KCNJ5 cDNAs (Choi et al., 2011, Science 331:768-772) were subcloned into the pcDNA5/FRT/TO vector using BamHI and HindIII. […] Assay plates were centrifuged and incubated overnight at 37° C. […] Luminescence was read on an Envision plate reader (PerkinElmer) with 0.3 second sampling time per well. Raw data (luminescence counts per second) was normalized to percent effect by the formula 100−(((sample−negative control mean)/(positive control mean−negative control mean))*100). […]
Measured IC50 by item

molecule: CC[C@H]1OC(=O)[C@H](C)[C@@H](O[C@H]2C[C@@](C)(OC)[C@@H](O)[C@H](C)O2)[C@H](C)[C@@H](O[C@@H]2O[C@H](C)C[C@H](N(C)C)[C@H]2O)[C@](C)(O)C[C@@H](C)C(=O)[C@H](C)[C@@H](O)[C@]1(C)O [Erythromycin, erythromycin]
unit annotation: nM
IC50: 10500

molecule: CC[C@H]1OC(=O)[C@H](C)[C@@H](O[C@H]2C[C@@](C)(OC)[C@@H](O)[C@H](C)O2)[C@H](C)[C@@H](O[C@@H]2O[C@H](C)C[C@H](N(C)C)[C@H]2O)[C@](C)(OC)C[C@@H](C)C(=O)[C@H](C)[C@@H](O)[C@]1(C)O [Clarithromycin, clarithromycin]
unit annotation: nM
IC50: 710

molecule: CC[C@H]1OC(=O)[C@H](C)[C@@H](O[C@H]2C[C@@](C)(OC)[C@@H](O)[C@H](C)O2)[C@H](C)[C@@H](O[C@@H]2O[C@H](C)C[C@H](NC)[C@H]2O)[C@](C)(O)C[C@@H](C)/C(=N\OCOCCOC)[C@H](C)[C@@H](O)[C@]1(C)O [N-demethyl Roxithromycin, N-demethyl roxithromycin]
unit annotation: nM
IC50: 820

molecule: CC[C@H]1OC(=O)[C@H](C)[C@@H](O[C@H]2C[C@@](C)(OC)[C@@H](O)[C@H](C)O2)[C@H](C)[C@@H](O[C@@H]2O[C@H](C)C[C@H](N(C)C(C)C)[C@H]2O)[C@@]2(C)CC(C)=C(O2)[C@H](C)[C@@H](O)[C@]1(C)O [Idremcinal, idremcinal]
unit annotation: nM
IC50: 600

molecule: CC[C@H]1OC(=O)[C@H](C)[C@@H](O[C@H]2C[C@@](C)(OC)[C@@H](O)[C@H](C)O2)[C@H](C)[C@@H](O[C@@H]2O[C@H](C)C[C@H](N(C)C)[C@H]2O)[C@](C)(O)C[C@@H](C)C(=O)[C@H](C)[C@@H](O)[C@H]1C [Erythromycin B, erythromycin B]
unit annotation: nM
IC50: 1230

molecule: CC[C@H]1OC(=O)[C@H](C)[C@@H](O[C@H]2C[C@@](C)(OC)[C@@H](O)[C@H](C)O2)[C@H](C)[C@@H](O[C@@H]2O[C@H](C)C[C@H](N(C)C)[C@H]2O)[C@](C)(O)C[C@@H](C)CN(C)[C@H](C)[C@@H](O)[C@]1(C)O [Azithromycin, azithromycin]
unit annotation: nM
IC50: 5690

molecule: CC[C@@H](O)[C@@](C)(O)[C@@H]1OC(=O)[C@H](C)[C@@H](O[C@H]2C[C@@](C)(OC)[C@@H](O)[C@H](C)O2)[C@H](C)[C@@H](O[C@@H]2O[C@H](C)C[C@H](N(C)C)[C@H]2O)[C@@]2(C)CC(C)=C(O2)[C@@H]1C [Pseudo Erythromycin A Enol Ether, pseudo erythromycin A enol ether]
unit annotation: nM
IC50: 650

molecule: CC[C@H]1OC(=O)[C@H](C)[C@@H](O[C@H]2C[C@@](C)(OC)[C@@H](O)[C@H](C)O2)[C@H](C)[C@@H](O[C@@H]2O[C@H](C)C[C@H](N(C)C)[C@H]2O)[C@](C)(O)C[C@@H](C)C(=NO)[C@H](C)[C@@H](O)[C@]1(C)O [Erythromycin A Oxime, erythromycin A oxime]
unit annotation: nM
IC50: 2880
